Target: [^3 H]nitrendipine binding to rat heart membranes (calcium ion-channel protein) (Rattus norvegicus, UniProt P22002)
Construct: Membranes were prepared from the hearts of male Sprague-Dawley rats; from tissue; host or cells: heart membranes of male Sprague-Dawley rats
Assay: [^3 H]Nitrendipine binding assay (enhancement of binding to rat heart membranes)
Set-up: species or system rat (male Sprague-Dawley)
Conditions: 25° C., 10^-7 M; ligand 0.1 nM; mean ± SEM
Assay Endpoint: activity at 0.1 µM (%)

CCCC(CN=C1CCCCCCCCCCCN1)(c1ccccc1)c1ccccc1 [Test Compound 1] : 119
COc1ccc([C@@H]2Sc3ccccc3N(CCN(C)C)C(=O)[C@@H]2OC(C)=O)cc1 [Test Compound 17, reference compound] : 96
c1ccc([C@H]2CCC[C@H]2N=C2CCCCCCCCCCCN2)cc1 (relative stereo) [Test Compound 3] : 102
C1CCCCCNC(=NC2CC3CCC2C3)CCCCC1 (centres unmarked) [Test Compound 4, 2-(2-norbornylimino)azacyclotridecane] : 105
c1ccc(-c2ccccc2N=C2CCCCCCCCCCCN2)cc1 [Test Compound 2, 2-(o-biphenylylimino)azacyclotridecane] : 117

====

Molecular target: [^3 H]d-cis-diltiazem binding to rat whole brain membranes (calcium ion-channel protein)
Assay: [^3 H]d-cis-Diltiazem binding assay (displacement from rat whole brain membranes)
Design: species or system rat (male Sprague-Dawley)
Conditions: 37° C.; ligand […]
Entries and their measured IC50 follow.
Provide only the numeric value, understood in µM.

COc1cc(CN=C2NCCC2=Cc2ccc(C)cc2)ccc1O : 1.9

Field: next molecule
Form field, IC50 with [^3 H]d-cis-diltiazem binding to rat whole brain membranes (calcium ion-channel protein), item c1ccc([C@H]2CCC[C@H]2N=C2CCCCCCCCCCCN2)cc1 (relative stereo) : 0.403

====

Target: [^3 H]d-cis-diltiazem binding to rat whole brain membranes (calcium ion-channel protein)
Assay: [^3 H]d-cis-Diltiazem binding assay (displacement from rat whole brain membranes)
Parameters: species or system rat (male Sprague-Dawley)
Conditions: 25° C.; ligand […]
The following compounds are listed with their measured IC50 values.
Write it as a number; the unit nM goes unstated.

COc1cc(CN=C2NCCC2=Cc2ccc(C)cc2)ccc1O : 1260

# context switch: different compound, same IC50
Per the record, c1ccc([C@H]2CCC[C@H]2N=C2CCCCCCCCCCCN2)cc1 (relative stereo) has IC50 of 280

====

Biological target: K^+ -depolarized guinea pig ileum or taenia (Cavia porcellus)
Construct: pieces of ileum, 2 cm in length, from male guinea pigs (200-400 g) were set up in isolated organ baths; from tissue; host or cells: strips of taenia from the caecum or pieces of ileum of male guinea pigs
Sequence (O35505 whole entry): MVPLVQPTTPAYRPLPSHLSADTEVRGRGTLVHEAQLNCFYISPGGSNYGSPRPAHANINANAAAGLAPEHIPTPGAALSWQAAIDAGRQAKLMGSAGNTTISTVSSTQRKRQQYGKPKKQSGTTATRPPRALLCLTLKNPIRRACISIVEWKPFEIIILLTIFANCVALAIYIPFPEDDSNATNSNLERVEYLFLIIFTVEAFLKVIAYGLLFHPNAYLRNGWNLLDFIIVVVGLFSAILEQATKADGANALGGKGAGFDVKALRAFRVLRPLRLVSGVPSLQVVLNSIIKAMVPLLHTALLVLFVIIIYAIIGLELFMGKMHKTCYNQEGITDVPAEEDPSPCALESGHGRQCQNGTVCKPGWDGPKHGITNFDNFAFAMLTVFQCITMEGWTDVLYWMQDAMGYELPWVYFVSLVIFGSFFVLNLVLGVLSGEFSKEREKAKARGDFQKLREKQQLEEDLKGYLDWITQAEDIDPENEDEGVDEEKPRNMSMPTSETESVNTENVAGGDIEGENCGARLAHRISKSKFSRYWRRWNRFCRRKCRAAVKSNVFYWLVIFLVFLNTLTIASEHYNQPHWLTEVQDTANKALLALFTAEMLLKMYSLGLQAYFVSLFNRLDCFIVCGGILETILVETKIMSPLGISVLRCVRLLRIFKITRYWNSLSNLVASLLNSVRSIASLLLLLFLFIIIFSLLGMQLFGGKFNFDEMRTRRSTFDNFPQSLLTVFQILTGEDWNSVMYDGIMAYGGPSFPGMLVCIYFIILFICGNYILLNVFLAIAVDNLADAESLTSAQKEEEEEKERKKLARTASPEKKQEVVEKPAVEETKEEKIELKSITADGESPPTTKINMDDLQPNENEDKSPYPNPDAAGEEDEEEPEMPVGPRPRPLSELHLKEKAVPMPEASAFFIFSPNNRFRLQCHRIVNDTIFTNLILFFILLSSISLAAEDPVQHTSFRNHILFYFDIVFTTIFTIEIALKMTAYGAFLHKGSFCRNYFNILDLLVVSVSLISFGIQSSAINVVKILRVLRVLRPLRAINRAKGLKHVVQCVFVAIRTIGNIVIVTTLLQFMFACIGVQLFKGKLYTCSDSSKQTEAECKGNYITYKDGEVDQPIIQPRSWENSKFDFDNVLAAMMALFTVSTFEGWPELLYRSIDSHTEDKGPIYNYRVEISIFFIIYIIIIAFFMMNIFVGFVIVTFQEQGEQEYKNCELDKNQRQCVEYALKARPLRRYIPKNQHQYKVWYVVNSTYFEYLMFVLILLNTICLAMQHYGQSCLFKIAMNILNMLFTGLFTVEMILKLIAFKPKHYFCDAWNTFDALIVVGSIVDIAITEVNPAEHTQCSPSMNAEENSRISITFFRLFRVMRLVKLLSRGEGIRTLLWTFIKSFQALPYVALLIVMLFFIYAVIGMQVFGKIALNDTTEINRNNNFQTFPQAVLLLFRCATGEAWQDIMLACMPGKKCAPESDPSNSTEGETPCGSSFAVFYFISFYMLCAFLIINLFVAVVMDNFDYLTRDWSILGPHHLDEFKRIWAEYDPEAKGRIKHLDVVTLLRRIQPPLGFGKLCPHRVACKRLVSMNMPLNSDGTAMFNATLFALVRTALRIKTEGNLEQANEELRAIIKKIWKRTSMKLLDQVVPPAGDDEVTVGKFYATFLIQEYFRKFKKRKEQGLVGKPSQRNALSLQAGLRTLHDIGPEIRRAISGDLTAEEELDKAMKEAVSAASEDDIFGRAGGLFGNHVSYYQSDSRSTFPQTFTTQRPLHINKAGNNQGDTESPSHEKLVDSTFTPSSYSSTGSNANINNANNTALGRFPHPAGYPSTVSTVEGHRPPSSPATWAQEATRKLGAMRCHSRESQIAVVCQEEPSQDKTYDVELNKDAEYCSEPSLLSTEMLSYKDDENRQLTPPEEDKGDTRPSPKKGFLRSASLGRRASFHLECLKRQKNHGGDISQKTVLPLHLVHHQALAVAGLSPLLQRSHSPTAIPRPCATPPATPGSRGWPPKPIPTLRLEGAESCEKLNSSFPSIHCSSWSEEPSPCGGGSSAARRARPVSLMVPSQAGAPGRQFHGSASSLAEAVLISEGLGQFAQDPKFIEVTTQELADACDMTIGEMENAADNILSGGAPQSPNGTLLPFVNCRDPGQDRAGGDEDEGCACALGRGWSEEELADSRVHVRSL
Assay: Antagonism of Ca^++ -induced contractions of K^+ -depolarized guinea pig taenia or ileum
Format: cell-based
Details: Table 1; guinea pig ileum or taenia, K^+ -depolarized; Ca^++ -induced contraction; Arunlakshana & Schild
Assay Endpoint: pA2

c1ccc(C(CCN=C2CCCCCN2)c2ccccc2)cc1 : 6.19
C1CCNC(=N[C@@H]2CCC[C@@H]2C2CCCCC2)CC1 (relative stereo) : 5.54
FC(F)(F)c1cccc(C(N=C2CCCCCN2)c2ccccc2)c1 (centres unmarked) : 5.60
c1ccc(C(CN=C2CCCCCN2)c2ccccc2)cc1 : 6.14
Clc1ccc(C(N=C2CCCCCN2)c2ccc(Cl)cc2)cc1 : 6.33
c1ccc(C(N=C2CCCCCCN2)C23CC4CC(CC(C4)C2)C3)cc1 (centres unmarked) : 6.63
CC(N=C1CCCCCN1)c1cccc2ccccc12 (single isomer, unassigned; (-)) [Test Compound 26] : 5.18
C1CCCCCNC(=NC2CC3CCC2C3)CCCCC1 (centres unmarked) : 6.07

====

Target: [^3 H]d-cis-diltiazem binding to rat whole brain membranes (calcium ion-channel protein)
Experiment: [^3 H]d-cis-Diltiazem binding assay (displacement from rat whole brain membranes)
Design: species or system rat (male Sprague-Dawley)
Conditions: Table 1; displacement of 3H diltiazem, rat brain membranes, 25° C., n = 3; Cheng & Prusoff
Assay Endpoint: pKi

c1ccc([C@H]2CCC[C@H]2N=C2CCCCCCCN2)cc1 (relative stereo) [Test Compound 14] : 5.26
CCCC(CN=C1CCCCCCCCCCCN1)(c1ccccc1)c1ccccc1 [Test Compound 1] : 6.49
C1CCNC(=NC2C3CC4CC(C3)CC2C4)CC1 (stereo not shown) [Test Compound 13, 2-(2-adamantanylimino)hexahydroazepine] : 4.70
Clc1ccc(C(N=C2CCCCCN2)c2ccc(Cl)cc2)cc1 [Test Compound 10] : 6.08

====

Target: [^3 H]nitrendipine binding to rat heart membranes (calcium ion-channel protein) (Rattus norvegicus, UniProt P22002)
Construct: Membranes were prepared from the hearts of male Sprague-Dawley rats; from tissue; host or cells: heart membranes of male Sprague-Dawley rats
Assay: [^3 H]Nitrendipine binding assay (enhancement of binding to rat heart membranes)
Set-up: species or system rat (male Sprague-Dawley)
Details: 37° C., 10^-7 M; ligand 0.1 nM; mean ± SEM
Assay Endpoint: activity at 0.1 µM (%)

c1ccc([C@H]2CCC[C@H]2N=C2CCCCCCCCCCCN2)cc1 (relative stereo) : 141
CCCC(CN=C1CCCCCCN1)(c1ccccc1)c1ccccc1 : 111
COc1ccc([C@@H]2Sc3ccccc3N(CCN(C)C)C(=O)[C@@H]2OC(C)=O)cc1 [Test Compound 17, reference compound] : 218
c1ccc(-c2ccccc2N=C2CCCCCCCCCCCN2)cc1 : 152

a: C1CCCCCNC(=NC2CC3CCC2C3)CCCCC1 (stereo not drawn)
b: CCCC(CN=C1CCCCCCCCCCCN1)(c1ccccc1)c1ccccc1
Returns the identifier with the smallest measured activity at 0.1 µM among a and b . Answer format: the label of the selected item. a
(a: 108%, b: 252%)

====

Target: [^3 H]nitrendipine binding to rat heart membranes (calcium ion-channel protein) (Rattus norvegicus, UniProt P22002)
Construct: Membranes were prepared from the hearts of male Sprague-Dawley rats; from tissue; host or cells: heart membranes of male Sprague-Dawley rats
Assay: [^3 H]Nitrendipine binding assay (enhancement of binding to rat heart membranes)
Set-up: species or system rat (male Sprague-Dawley)
Conditions: 37° C., 10^-6 M; ligand 0.1 nM; mean ± SEM
Assay Endpoint: activity at 1 µM (%)

CCCC(CN=C1CCCCCCCCCCCN1)(c1ccccc1)c1ccccc1 : 224
CCCC(CN=C1CCCCCCN1)(c1ccccc1)c1ccccc1 : 122
C1CCCCCNC(=NC2CC3CCC2C3)CCCCC1 (stereo not drawn) : 116

a: COc1ccc([C@@H]2Sc3ccccc3N(CCN(C)C)C(=O)[C@@H]2OC(C)=O)cc1 [Test Compound 17, reference compound]
b: c1ccc(-c2ccccc2N=C2CCCCCCCCCCCN2)cc1
When the recorded activity at 1 µM values are compared, which is smaller: that of a or that of b ? Please indicate the selected item by its label. b
(b: 152%, a: 262%)

====

Biological target: [^3 H]nitrendipine binding to rat heart membranes (calcium ion-channel protein) (Rattus norvegicus, UniProt P22002)
Construct: Membranes were prepared from the hearts of male Sprague-Dawley rats; from tissue; host or cells: heart membranes of male Sprague-Dawley rats
Experiment: [^3 H]Nitrendipine binding assay (enhancement of binding to rat heart membranes)
Design: species or system rat (male Sprague-Dawley)
Details: 25° C., 10^-6 M; ligand 0.1 nM; mean ± SEM
Assay Endpoint: activity at 1 µM (%)

Answered cases to consult:
C1CCCCCNC(=NC2CC3CCC2C3)CCCCC1 (centres unmarked) : 106
CCCC(CN=C1CCCCCCCCCCCN1)(c1ccccc1)c1ccccc1 : 123
c1ccc([C@H]2CCC[C@H]2N=C2CCCCCCCCCCCN2)cc1 (relative stereo) : 112

a: c1ccc(-c2ccccc2N=C2CCCCCCCCCCCN2)cc1
b: COc1ccc([C@@H]2Sc3ccccc3N(CCN(C)C)C(=O)[C@@H]2OC(C)=O)cc1 [Test Compound 17, reference compound]
Task for the reader: decide whether a or b has the larger activity at 1 µM. Please respond with the label that marks your chosen entry. a
(a: 123%, b: 83%)

====

Biological target: [^3 H]d-cis-diltiazem binding to rat whole brain membranes (calcium ion-channel protein)
Assay: [^3 H]d-cis-Diltiazem binding assay (displacement from rat whole brain membranes)
Parameters: species or system rat (male Sprague-Dawley)
Conditions: Table 1; displacement of 3H diltiazem, rat brain membranes, 25° C., n = 3; Cheng & Prusoff
Assay Endpoint: pKi

Below are worked cases with known answers.
c1ccc([C@@H]2CCC[C@@H]2N=C2CCCN2)cc1 (relative stereo) : 4.96
c1ccc(C(N=C2CCCCCCN2)C23CC4CC(CC(C4)C2)C3)cc1 (centres unmarked) : 6.72
C1CCCCCNC(=NC2CC3CCC2C3)CCCCC1 (centres unmarked) : 5.92
FC(F)(F)c1cccc(C(N=C2CCCCCN2)c2ccccc2)c1 (centres unmarked) : 5.92
c1ccc([C@H]2CCC[C@H]2N=C2CCCCCCCCCCCN2)cc1 (relative stereo) : 6.41
C1CCNC(=N[C@@H]2CCC[C@@H]2C2CCCCC2)CC1 (relative stereo) : 5.54

A: c1ccc([C@H]2CCC[C@H]2N=C2CCCCCN2)cc1 (relative stereo)
B: CCCCOc1ccc(C(N=C2CCCCCN2)c2ccccc2)cc1 (centres unmarked)
Recorded pKi values differ for A and B ; which one is higher? Write the label of whichever entry you select. B
(B: 6.17, A: 4.16)
